Taken from PubChem BioAssay AID463173.

Below is a list of entries, each paired with its recorded survival value.
system: DeltatarO mutant; assay: S. aureus survival, RN4220 and DeltatarO strains – OD600, teichoic acid synthesis inhibitors, primary screen (AID 463173); details: S. aureus RN4220 wild type/DeltatarO growth, OD600, 18 h, active compounds read low, screened at 18.75 µg/mL (by protocol)
Among all 52,000 compounds or so, about 4,300 (8.3%) were called active. What follows is part of a selection rich in actives, with near analogues and random picks from the rest.
experimental-endpoint: survival (%)

> print(dat)
                                    compound  value.reported
 1  Cc1c(C(=O)NCc2cccc(Br)c2)oc2ccc3c(c12)C(=O)CC(C)(C)O3              61
 2  CC(C)Sc1oc(-c2cccs2)nc1S(=O)(=O)c1ccc(Cl)cc1              66
 3  Cc1ccc(S(=O)(=O)c2nc(-c3cccs3)oc2SC(C)c2ccccc2)cc1 (stereo unspecified)              55
 4  CCCOc1ccc(CNC(=O)c2oc3ccc4c(c3c2C)C(=O)CC(C)(CC)O4)cc1 (stereo unspecified)              68
 5  COc1ccc(CNC(=O)CSc2nc3cc4c(cc3cc2C#N)OCCO4)cc1              96
 6  CCCSc1oc(-c2ccco2)nc1S(=O)(=O)c1ccc(Cl)cc1              51
 7  O=C(CN1CCC(NC(=O)Nc2ccccc2-c2ccccc2)CC1)NCc1ccco1              78
 8  CCC1(C)CC(=O)c2c(ccc3oc(C(=O)Nc4ccc(C(C)=O)cc4)c(C)c23)O1 (stereo unspecified)              78
 9  COc1ccc(NS(=O)(=O)c2ccc3c(c2)CCN3C(=O)C2CC2)cc1OC              86
10  Cc1ccc(S(=O)(=O)c2nc(-c3ccco3)oc2SC(C)c2ccccc2)cc1 (stereo unspecified)              45
11  Cc1c(C(=O)NCc2ccccc2Br)oc2ccc3c(c12)C(=O)CC(C)(C)O3              83

* * *

tested on: DeltatarO mutant; assay: S. aureus survival, RN4220 and DeltatarO strains – OD600, teichoic acid synthesis inhibitors, primary screen (AID 463173); conditions: S. aureus RN4220 wild type/DeltatarO growth, OD600, 18 h, active compounds read low, screened at 18.75 µg/mL (by protocol)
Among all 52,000 compounds or so, about 4,300 (8.3%) were called active. Many of the other results were omitted from the sample, so actives are more common in it than they were.
experimental-endpoint: survival (%)

> print(dat)
                                   molecule      study.target  value.reported
1                  O=C(O)c1ccc(N2CCOCC2)cc1  DeltatarO mutant              80
2  CCCCn1c(SCC(=O)NCc2ccc(C)cc2)nc2c(sc3ccccc32)c1=O  DeltatarO mutant              89
3  CCN(CC)c1cc(C)c2cc(NC(=O)c3cc(OC)cc(OC)c3)ccc2n1  DeltatarO mutant              59
4  CCC(OC(=O)CN1C(=O)c2ccccc2C1=O)C(=O)NC1CCCC1 (centres undefined)  DeltatarO mutant              83
